Entry source: paper PMC7205207

Biological target: T1, human PDGF-BB (platelet derived growth factor B homodimer) (human, UniProt P01127)
T1 construct: Platelet derived growth factor B, human, homodimer, bought from PeproTech; the printed catalogue number may stand for 100-14B; source: bought: PeproTech, Catalog 100-148
T1 sequence (P01127 82-190): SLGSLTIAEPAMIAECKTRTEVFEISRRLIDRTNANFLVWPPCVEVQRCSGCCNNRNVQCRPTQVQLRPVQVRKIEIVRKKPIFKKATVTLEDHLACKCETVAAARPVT
Assay: SPR; Biacore T200, full kinetics; antibody captured by anti-human IgG on a CM5 chip; human PDGF-BB at 20, 10, 5, 2.5 and 1.25 nM, 50 s injection; HBS-EP+ N; 25 C; 1:1 Langmuir fit
Conditions: both partners purified
measured.attribute: pKd
Lab note: report pKd as minus log10 of the concentration in molar units, number only.

Need pKd, item R1-016 (antibody, V domains shown, only the variable regions are written; source: HEK293, transient, purified from conditioned medium (protein A, TMAE, HIC)) VH: EVQLLQSGGGLVKPGGSLRLSCAASGFTFSSYAMSWVRQAPGKGLEWVSYISDDGSLKYYADSVKGRFTISRDNSKNTLYLQMNSLRAEDTAVYYCARHPYWYGGQLDLWGQGTLVTVSS VL: SYELTQPPSVSVSPGQTASITCSGDSLGSYFVHWYQQKPGQSPVLVIYDDSKRPSGIPERFSGSNSGNTATLTISGTQAMDEADYYCSAFTHNSDVFGGGTKLTVL
10.13
